experiment: Half life in po dosed CD-1 mouse by LC/MS/MS analysis; assay type: ADME, organism-based; conditions: in vivo
Note to self: use class 1 only for half-life readings below 10 h; a reading exactly at 10 h still gets class 0.

- COMPOUND: "[2H]c1nc([2H])n(C2([2H])CCC(C)(C)C(/C=C/C(C)=C/C=C/C(C)=C/C(=O)Nc3ccc(F)cc3)=C2C)c1[2H] (racemic)"
  LABEL CLASS: "class 1"
- COMPOUND: "[2H]c1c([2H])c(NC(=O)/C=C(C)/C=C/C=C(C)/C=C/C2=C(C)C(n3ccnc3)CCC2(C)C)c([2H])c([2H])c1F (racemic)"
  LABEL CLASS: "class 1"
- COMPOUND: "[2H]c1nc([2H])n(C2([2H])CCC(C)(C)C(/C=C/C(C)=C/C=C/C(C)=C/C(=O)Nc3c([2H])c([2H])c(F)c([2H])c3[2H])=C2C)c1[2H] (racemic)"
  LABEL CLASS: "class 0"
- COMPOUND: "CC1=C(/C=C/C(C)=C/C=C/C(C)=C/C(=O)Nc2ccc(F)cc2)C(C)(C)CCC1n1ccnc1 (racemic; form 1)"
  LABEL CLASS: "class 1"
- COMPOUND: "[2H]C1(n2ccnc2)CCC(C)(C)C(/C=C/C(C)=C/C=C/C(C)=C/C(=O)Nc2ccc(F)cc2)=C1C (racemic)"
  LABEL CLASS: "class 0"
- COMPOUND: "[2H]c1nc([2H])n(C2CCC(C)(C)C(/C=C/C(C)=C/C=C/C(C)=C/C(=O)Nc3ccc(F)cc3)=C2C)c1[2H] (racemic)"
  LABEL CLASS: "class 1"
- COMPOUND: "[2H]c1nc([2H])n(C2CCC(C)(C)C(/C=C/C(C)=C/C=C/C(C)=C/C(=O)Nc3c([2H])c([2H])c(F)c([2H])c3[2H])=C2C)c1[2H] (racemic)"
  LABEL CLASS: "class 1"
